Measured apparent Kd values are reported for all entries that follow.
system: MS2 coat protein; test: apparent Kd, MS2 coat protein; higher = weaker binding; RNA-MaP array; tryptophan 2.4 mM where present; conditions: ligand present: tryptophan; designed as: ON switch for tryptophan
Enter the number, and then the unit.

- residue_codes: "AACAUGAGGAUCACCCAUGUCCUCGUGUUCCGAGGACCGGUACGGCCGCCACUCGGUCCUCGCGAGGAUGGUCAAAGACUAUCCA"
  system_under_test: "MS2 coat protein"
  result: "170 nM"
- residue_codes: "CCUCAAUAGACGGCCGCCACUGAAACAUGCGGAUACAUGAGGAUCACCCAUGUGGGUGUGUUACGCAGGACCGGGUCAAGACCCG"
  system_under_test: "MS2 coat protein"
  result: "480 nM"
- residue_codes: "AUAAUAAUACAUGAGGAUCACCCAUGUAUGCGAGGACCGGUACGGCCGCCACUCGACCUCAUGCAUACAUGAGGAUCACCCAUGU"
  system_under_test: "MS2 coat protein"
  result: "62 nM"

Prompt: Please list apparent Kd recorded for the sequence "CGAUAUGGGACGGCCGCCACUAUUAUGUAACAAAAUAAACAUGAGGAUCACCCAUGUACAUGGGAUAGGACCGGGUCCUAUAACG"
Completion: 19.9 nM

###

tested on: MS2 coat protein; experiment: apparent Kd, MS2 coat protein; higher = weaker binding; RNA-MaP array; FMN 200 µM where present; conditions: ligand present: flavin mononucleotide; designed as: ON switch for flavin mononucleotide
Measured apparent Kd values are reported for all entries that follow.
// units = nM; emit number, no label

- residue_codes: "AAUAAACACACAGGAUAUAGCAUCGUCGGUAUGAACUUAAAGACGACGAUGCUAGAAGGGUGAACACAUGAGGAUCACCCAUGU"
  apparent Kd (nM): 39.1
- residue_codes: "UUUAUGGGACAGAAGGGCAAUUUCUUUAAUUAUUAUUUAAAACAUCAUUGCAGGAUAUGUAUAACAUGAGGAUCACCCAUGUAC"
  apparent Kd (nM): 12.2
- residue_codes: "AAAACAUGAGGAUCACCCAUGUAAAGAUCGGUUGAUGAAAGUGAGGAUAUACAAAAUUUUAUGGAGUAGAAGGCACUGGGUUGA"
  apparent Kd (nM): 47.7

Prompt: Please list apparent Kd recorded for the sequence "CGCUAAGAUGGGUCUAAUGGACCAUAGGAUAUGCUUGUACAUGAGGAUCACCCAUGUAAUAUUGUGCAGAAGGGUGGAUUUGCG"
Completion: 19.6

Prompt: Please list apparent Kd recorded for the sequence "GGUACCAUCACAGGAUAUGCUUUCCUUUGGGAAGCAGAAGGGUGUAACAUGAGGAUCACCCAUGUGGUGCCAGGGCGUGAGCCU"
Completion: 16

Prompt: Please list apparent Kd recorded for the sequence "GUGGUCAGACAUGAGGAUCACCCAUGUGGAAUAAAUAAGGUUUAGGAUAUGGAAUAUAGGAUAUACCAGAAGGAAGGGUUGGUG"
Completion: 135

Prompt: Please list apparent Kd recorded for the sequence "AAAAUGUGUACAUGAGGAUCACCCAUGUAUCGACUCCAAAGCAAGGAUAUGAUCAUGGGAAUUGGUCAGAAGGUGCAGGGUCUG"
Completion: 25.8

###

system: MS2 coat protein; assay: apparent Kd, MS2 coat protein; higher = weaker binding; RNA-MaP array; settings: designed as: ON switch for flavin mononucleotide; no ligand
parameter: apparent Kd
Enter the number, and then the unit.

Here are 5 sequences together with their reported answers.
- residue_codes: "UGCUGCUCGAGAGGAUAUACGAAAUGGAACAUGAGGAUCACCCAUGUAUAUCUCCACAAACAGACGUAGAAGGCACAAUAAGGA"
  apparent Kd: "58.2 nM"
- residue_codes: "GGAUACUUUGGAGGAUAUAAUUUUAUCAUCACUUGUGAUCGAUGACAUGAGGAUCACCCAUGUAAUUAGAAGGCCAUUAAUUAC"
  apparent Kd: "239 nM"
- residue_codes: "UAAAGCUGAAAGAAGGCUCCAUCGCUAGUACUGAGAGGAUAUUUCGUUGUUGACAUGAGGAUCACCCAUGUGGUUCGCCGGGCC"
  apparent Kd: "49.4 nM"
- residue_codes: "ACACAUCCACAUGAGGAUCACCCAUGUAAACCGAAAUAGCACUAGGAUAUGGGACAAACAAUUCACCAGAAGGAGUAAAAGAAA"
  apparent Kd: "52.7 nM"
- residue_codes: "CACGUACAUGAGGAUCACCCAUGUAUGUCCGAAACGCGAGUACAGGAUAUGAUAUGGAGAAGUCUUCAGAAGGGUACAAAUCGC"
  apparent Kd: "58.4 nM"

# ---- query sequence ----
Prompt: Please list apparent Kd recorded for the sequence "GGCUUCCCAAGAGGAUAUGCGGUAAUUAUCUACAUGAGGAUCACCCAUGUUUUUAACUCAAGUCCGCAGAAGGCUUAAGGAUAU"
Completion: 5.13 nM
